measured_on: human TLR8 (Homo sapiens, UniProt Q9NR97)
Sequence (Q9NR97 27-1041): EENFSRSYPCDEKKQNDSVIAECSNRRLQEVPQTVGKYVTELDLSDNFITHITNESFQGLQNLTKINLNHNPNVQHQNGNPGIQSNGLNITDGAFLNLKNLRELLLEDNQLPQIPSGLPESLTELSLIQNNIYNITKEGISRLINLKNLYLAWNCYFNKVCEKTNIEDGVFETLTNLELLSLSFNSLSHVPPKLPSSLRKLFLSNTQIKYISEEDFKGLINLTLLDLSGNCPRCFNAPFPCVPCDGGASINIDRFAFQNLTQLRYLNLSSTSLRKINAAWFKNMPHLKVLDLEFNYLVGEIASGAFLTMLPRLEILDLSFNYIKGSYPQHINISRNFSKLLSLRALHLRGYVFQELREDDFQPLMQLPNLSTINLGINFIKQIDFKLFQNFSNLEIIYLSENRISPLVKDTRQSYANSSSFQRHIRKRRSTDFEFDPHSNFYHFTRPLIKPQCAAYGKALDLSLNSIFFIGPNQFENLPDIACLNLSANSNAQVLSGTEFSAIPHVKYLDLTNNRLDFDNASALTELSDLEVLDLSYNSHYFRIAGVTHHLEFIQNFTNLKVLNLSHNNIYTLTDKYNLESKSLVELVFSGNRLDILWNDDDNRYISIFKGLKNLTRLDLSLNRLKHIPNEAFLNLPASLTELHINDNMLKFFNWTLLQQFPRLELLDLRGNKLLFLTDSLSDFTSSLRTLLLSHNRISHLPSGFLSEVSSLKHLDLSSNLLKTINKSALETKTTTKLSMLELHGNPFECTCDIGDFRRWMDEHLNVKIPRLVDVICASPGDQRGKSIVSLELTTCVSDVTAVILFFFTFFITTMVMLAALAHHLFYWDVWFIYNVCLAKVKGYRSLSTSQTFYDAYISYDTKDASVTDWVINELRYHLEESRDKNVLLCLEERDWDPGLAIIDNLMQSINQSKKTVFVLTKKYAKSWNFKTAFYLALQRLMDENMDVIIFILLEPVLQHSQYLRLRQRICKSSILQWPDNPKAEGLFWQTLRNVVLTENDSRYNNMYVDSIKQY
test_protocol: TLR8 inhibition reporter assay (HEK-Blue SEAP reporter, R848 stimulation)
condition: HEK-Blue cells overexpressing human TLR8, SEAP reporter, R848 15.9 μM, 22 hour incubation
pIC50: −log10 of the molar value.
pIC50 vs 8: at or above is True, below is False.

Completed entries (count: 10):
Prompt: Could you tell me if the measured pIC50 of `Cc1cc(-c2[nH]c3ccc(C4CCN(CC(C)C)CC4)cc3c2C(C)C)cn(CC(C)C)c1=O` reaches 8 or more?
Completion: False

Prompt: Kindly determine if pIC50 recorded for `Cc1cc(-c2[nH]c3ccc(C4CCN(Cc5ccn(C)n5)CC4)cc3c2C(C)C)cn(C)c1=O` is above or exactly 8.
Completion: True

Prompt: Is pIC50 at least 8? Consider `Cc1cc(-c2[nH]c3ccc(C4CCN(C5CCOCC5)CC4)cc3c2C(C)C)cn(C)c1=O`
Completion: True

Prompt: State whether the measured pIC50 reaches 8, counting equality as reaching it, for `Cc1cc(-c2[nH]c3ccc(C4CCN(CC(=O)NC[C@@H](C)O)CC4)cc3c2C(C)C)cn(C)c1=O`
Completion: False

Prompt: Given the entry `Cc1cc(-c2[nH]c3ccc(C4CCNCC4)cc3c2C(C)C)cn(CC(F)(F)F)c1=O` , answer whether its pIC50 meets or surpasses 8.
Completion: False

Prompt: Item `CCn1cc(-c2[nH]c3ccc(C4CCNCC4)cc3c2C(C)C)cc(Cl)c1=O` with pIC50 of 8 or above?
Completion: False

Prompt: Confirm if pIC50 reported for the molecule `CCCN1CCC(c2ccc3[nH]c(-c4cc(-c5cnn(C)c5)c(=O)n(C)c4)c(C(C)C)c3c2)CC1` is 8 or above.
Completion: True

Prompt: Is pIC50 at least 8? Consider `Cc1c(-c2[nH]c3ccc(C4CCN(CC(=O)N(C)C)CC4)cc3c2C(C)C)nn(C)c(=O)c1C`
Completion: False

Prompt: Check this molecule for pIC50 at or above 8: `Cc1cc(-c2[nH]c3ccc(C4CCNCC4)cc3c2C(C)C)cn(C)c1=O`
Completion: True

Prompt: Could you please find out whether `CNC(=O)CN1CCC(c2ccc3[nH]c(-c4nn(C)c(=O)c(C)c4C)c(C(C)C)c3c2)CC1` has pIC50 that meets 8 or exceeds it?
Completion: False

Pending molecule:
Prompt: hey, is pIC50 for this one >= 8? `Cc1c(-c2[nH]c3ccc(C4CCNCC4)cc3c2C(C)C)cn(C)c(=O)c1C`
Completion: True
